Here we list molecules with their recorded pIC50 when tested on SARS-CoV 3CL^pro (Severe acute respiratory syndrome coronavirus).
In simple prose, pIC50 is minus the logarithm base ten of a concentration in moles per litre.

1) CC1(C)C[C@H](CN(NC(=O)[C@@H]2[C@H]3CCC[C@H]3CN2C(=O)[C@@H](NC(=O)[C@@H]2CC2(F)F)C(C)(C)C)C(=O)[C@H](F)Cl)C(=O)N1 [Example 5]; 6.86
2) C[C@@H]1C[C@H](CN(NC(=O)[C@@H]2[C@H]3CCC[C@H]3CN2C(=O)[C@@H](NC(=O)[C@@H]2CC2(F)F)C(C)(C)C)C(=O)[C@@H](F)Cl)C(=O)N1 [Example 29]; 7.03
3) CCC(CC)[C@H](NC(=O)C(F)F)C(=O)N1C[C@@H]2CCC[C@@H]2[C@H]1C(=O)NN(C[C@H]1CC(C)(C)NC1=O)C(=O)[C@H](F)Cl [Example 8]; 6.59

Request: Entry CC1(C)C[C@@H](CN(NC(=O)[C@@H]2[C@@H]3[C@H](CN2C(=O)[C@@H](NC(=O)[C@H](F)Cl)C(C)(C)C)C3(C)C)C(=O)[C@H](F)Cl)C(=O)N1 [Example 20] has what pIC50?
Result: 7.49

Request: Similarly, CC1(C)C[C@H](CN(NC(=O)[C@@H]2[C@@H]3[C@H](CN2C(=O)[C@@H](NC(=O)[C@@H]2CC2(F)F)C(C)(C)C)C3(C)C)C(=O)[C@H](F)Cl)C(=O)N1 [Example 24] ?
Result: 6.75

Request: Similarly, CCC(CC)[C@H](NC(=O)C(F)F)C(=O)N1C[C@@H]2CCC[C@@H]2[C@H]1C(=O)NN(C[C@@H]1CC(C)(C)NC1=O)C(=O)[C@@H](F)Cl [Example 12] ?
Result: 7.89

Request: Similarly, CC1(C)C[C@@H](CN(NC(=O)[C@@H]2[C@@H]3[C@H](CN2C(=O)[C@@H](NC(=O)[C@@H](F)Cl)C(C)(C)C)C3(C)C)C(=O)[C@@H](F)Cl)C(=O)N1 [Example 22] ?
Result: 7.32

Request: Similarly, CC[C@H](C)[C@H](NC(=O)C1(F)CC1)C(=O)N1C[C@H]2[C@@H]([C@H]1C(=O)NN(C[C@@H]1CC(C)(C)NC1=O)C(=O)[C@H](F)Cl)C2(C)C [Example 1a] ?
Result: 7.08

Request: Similarly, CC1(C)C[C@@H](CN(NC(=O)[C@@H]2[C@H]3CCC[C@H]3CN2C(=O)[C@@H](NC(=O)[C@H](F)Cl)C(C)(C)C)C(=O)[C@H](F)Cl)C(=O)N1 [Example 14] ?
Result: 8.05

Request: Similarly, C[C@H]1C[C@H](CN(NC(=O)[C@@H]2[C@@H]3[C@H](CN2C(=O)[C@@H](NC(=O)[C@@H]2CC2(F)F)C(C)(C)C)C3(C)C)C(=O)[C@H](F)Cl)C(=O)N1 [Example 31] ?
Result: 7.28

Request: Similarly, CC1(C)C[C@@H](CN(NC(=O)[C@@H]2[C@H]3CCC[C@H]3CN2C(=O)[C@@H](NC(=O)[C@@H]2CC2(F)F)C(C)(C)C)C(=O)[C@H](F)Cl)C(=O)N1 [Example 4] ?
Result: 7.82

Request: Similarly, C[C@H]1C[C@H](CN(NC(=O)[C@@H]2[C@H]3CCC[C@H]3CN2C(=O)[C@@H](NC(=O)[C@@H]2CC2(F)F)C(C)(C)C)C(=O)[C@H](F)Cl)C(=O)N1 [Example 28] ?
Result: 7.13

Request: Similarly, CC[C@H](C)[C@H](NC(=O)C1(F)CC1)C(=O)N1C[C@H]2[C@@H]([C@H]1C(=O)NN(C[C@H]1CC(C)(C)NC1=O)C(=O)[C@@H](F)Cl)C2(C)C [Example 19] ?
Result: 7.49

Request: Similarly, CC1(C)C[C@@H](CN(NC(=O)[C@@H]2[C@@H]3[C@H](CN2C(=O)[C@@H](NC(=O)[C@@H]2CC2(F)F)C(C)(C)C)C3(C)C)C(=O)[C@H](F)Cl)C(=O)N1 [Example 21] ?
Result: 7.66

Request: Similarly, CC1(C)C[C@@H](CN(NC(=O)[C@@H]2[C@H]3CCC[C@H]3CN2C(=O)[C@@H](NC(=O)[C@@H](F)Cl)C(C)(C)C)C(=O)[C@@H](F)Cl)C(=O)N1 [Example 17] ?
Result: 7.72

Request: Similarly, CC1(C)C[C@@H](CN(NC(=O)[C@@H]2[C@H]3CCC[C@H]3CN2C(=O)[C@@H](NC(=O)C(F)F)C(C)(C)C)C(=O)[C@H](F)Cl)C(=O)N1 [Example 11] ?
Result: 7.85

Request: Similarly, CC1(C)C[C@@H](CN(NC(=O)[C@@H]2[C@@H]3[C@H](CN2C(=O)[C@@H](NC(=O)[C@@H]2CC2(F)F)C(C)(C)C)C3(C)C)C(=O)[C@@H](F)Cl)C(=O)N1 [Example 23] ?
Result: 7.07

Request: Similarly, CC(C)(C)[C@H](NC(=O)[C@@H]1CC1(F)F)C(=O)N1C[C@@H]2CCC[C@@H]2[C@H]1C(=O)NN(C[C@H]1C(=O)N[C@@H]2C[C@@H]21)C(=O)[C@@H](F)Cl [Example 37] ?
Result: 7.68

Request: Similarly, C[C@@H]1C[C@@H](CN(NC(=O)[C@@H]2[C@H]3CCC[C@H]3CN2C(=O)[C@@H](NC(=O)[C@@H]2CC2(F)F)C(C)(C)C)C(=O)[C@@H](F)Cl)C(=O)N1 [Example 30] ?
Result: 7.96
